From: patent US20260274891A1

system-tested: human κ opioid receptor (OPRK1) (Homo sapiens, UniProt P41145)
Construct: expressed in transfected cells; host or cells: CHO-K1
Sequence (P41145 whole entry): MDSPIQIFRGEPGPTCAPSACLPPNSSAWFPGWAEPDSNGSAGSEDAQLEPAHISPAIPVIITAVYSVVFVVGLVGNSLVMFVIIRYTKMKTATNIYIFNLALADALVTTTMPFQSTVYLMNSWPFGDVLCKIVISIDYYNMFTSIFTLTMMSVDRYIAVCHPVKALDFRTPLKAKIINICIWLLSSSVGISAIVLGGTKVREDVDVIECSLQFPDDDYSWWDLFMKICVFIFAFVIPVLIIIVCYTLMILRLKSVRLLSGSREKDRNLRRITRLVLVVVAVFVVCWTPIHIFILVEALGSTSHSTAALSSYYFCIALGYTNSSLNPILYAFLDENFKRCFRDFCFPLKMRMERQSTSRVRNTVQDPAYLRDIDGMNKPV
assay-notes: Determination of activities of κ receptor agonists: inhibition of forskolin-stimulated cAMP release (HTRF) in stably transfected CHO-K1 cells
Assay type: cell-based
Bridge positions count the residues as written; N and C are the ends. Square brackets hold non-standard residues; d marks the D form. Peptide text beside a SMILES is read from it. I, II: the chains in the order shown. Api = NC1(C(=O)O)CCNCC1
Please provide measured pEC50 for the entries that follow.
One number for each entry, as −log10 of the molar value.

compound | quantity-kind | value
CCOc1ccc(C[C@@H](NC(=O)[C@H](N)Cc2ccccc2)C(=O)N[C@H](CC(C)C)C(=O)N[C@H](CCCCN)C(=O)N2CCC(N)(C(=O)NCC(=O)NCC(=O)N[C@H](CCCCN)C(=O)O)CC2)cc1 [Compound 54] (I: H-[Api]GG[dK]-OH / II: H-[dF][dY](Et)[dL][dK]; amide I:1-II:C; N-terminus assumed) | pEC50 | 10.33
CC(C)C[C@@H](NC(=O)[C@@H](Cc1ccc(I)cc1)NC(=O)[C@H](N)Cc1ccccc1)C(=O)N[C@H](CCCCN)C(=O)N1CCC(N)(C(N)=O)CC1 [Compound 121] | pEC50 | 9.91
Cc1ccc(C[C@@H](NC(=O)[C@H](N)Cc2ccccc2)C(=O)N[C@H](CC(C)C)C(=O)N[C@H](CCCCN)C(=O)N2CCC(N)(C(=O)N[C@@H](CCCCN)C(N)=O)CC2)cc1 [Compound 127] | pEC50 | 9.80

Now examine the next entry.
Identify measured pEC50 corresponding to CC(C)C[C@@H](NC(=O)[C@@H](Cc1ccc(N)cc1)NC(=O)[C@H](N)Cc1ccccc1)C(=O)N[C@H](CCCCN)C(=O)N1CCC(N)(C(=O)N[C@H](CCCCN)C(N)=O)CC1 [Compound 141]
9.95

---

system-tested: human κ opioid receptor (OPRK1) (Homo sapiens, UniProt P41145)
Construct: expressed in transfected cells; host or cells: CHO-K1
assay-notes: Determination of activities of κ receptor agonists: inhibition of forskolin-stimulated cAMP release (HTRF) in stably transfected CHO-K1 cells
Assay type: cell-based
Square brackets hold non-standard residues; d marks the D form. Peptide text beside a SMILES is read from it. * marks the point of attachment. X21 = NCCCC[C@H](NC(=O)[C@H](CCCCN)NC(=O)C1(N)CCN(*)CC1)C(N)=O
quantity-kind: pEC50
Numbers only, as −log10 of the molar value.

molecule | value
CCOc1ccc(C[C@@H](NC(=O)[C@H](N)Cc2ccccc2)C(=O)N[C@H](CC(C)C)C(=O)N[C@H](CCCCN)C(=O)N2CCC(N)(C(=O)N[C@@H](CCCCN)C(=O)N[C@@H](CCCCN)C(N)=O)CC2)cc1 [Compound 5] (H-[dF][dY](Et)[dL][dK]-X21; N-terminus assumed) | 10.39
CC(C)C[C@@H](NC(=O)[C@@H](Cc1ccc(I)cc1)NC(=O)[C@H](N)Cc1ccccc1)C(=O)N[C@H](CCCCN)C(=O)N1CCC(N)(C(=O)N[C@@H](CCCCN)C(N)=O)CC1 [Compound 123] | 10.27
CC(C)C[C@@H](NC(=O)[C@@H](Cc1ccc(I)cc1)NC(=O)[C@H](N)Cc1ccccc1)C(=O)N[C@H](CCCCN)C(=O)N1CCC(N)(C(=O)O)CC1 [Compound 122] | 9.92

Identify measured pEC50 corresponding to CCc1ccc(C[C@@H](NC(=O)[C@H](N)Cc2ccccc2)C(=O)N[C@H](CC(C)C)C(=O)N[C@H](CCCCN)C(=O)N2CCC(N)(C(=O)N[C@H](CCCCN)C(N)=O)CC2)cc1 [Compound 133]
9.88

---

Please provide measured EC50 for the entries that follow.
system-tested: human κ opioid receptor (OPRK1) (Homo sapiens, UniProt P41145)
Construct: expressed in transfected cells; host or cells: CHO-K1
assay-notes: Determination of activities of κ receptor agonists: inhibition of forskolin-stimulated cAMP release (HTRF) in stably transfected CHO-K1 cells
Type: cell-based
Square brackets hold non-standard residues; d marks the D form. Side chains are listed from the residue outwards. Peptide text beside a SMILES is read from it. * marks the point of attachment. X12 = CCOc1ccc(C[C@@H](NC(=O)[C@H](N)Cc2ccccc2)C(=O)*)cc1; Api = NC1(C(=O)O)CCNCC1
Give bare numbers, in pM.

compound | EC50, pM
CCOc1ccc(C[C@@H](NC(=O)[C@H](N)Cc2ccccc2)C(=O)N[C@H](CC(C)C)C(=O)N[C@H](CCCCN)C(=O)N2CCC(N)(C(=O)N[C@H](CCCCN)C(=O)N[C@H](CCCCN)C(=O)N[C@H](CCCCN)C(=O)N[C@H](CCCCN)C(=O)N[C@H](CCCCN)C(N)=O)CC2)cc1 [Compound 23] (H-[Api]([dK-dL-X12])[dK][dK][dK][dK][dK]-NH2; N-terminus assumed) | 55.4

Now examine the next entry.
Identify measured EC50 corresponding to CCc1ccc(C[C@@H](NC(=O)[C@H](N)Cc2ccccc2)C(=O)N[C@H](CC(C)C)C(=O)N[C@H](CCCCN)C(=O)N2CCC(N)(C(=O)N[C@@H](CCCCN)C(=O)O)CC2)cc1
130

---

Please provide measured EC50 for the entries that follow.
system-tested: human κ opioid receptor (OPRK1) (Homo sapiens, UniProt P41145)
Construct: expressed in transfected cells; host or cells: CHO-K1
assay-notes: Determination of activities of κ receptor agonists: inhibition of forskolin-stimulated cAMP release (HTRF) in stably transfected CHO-K1 cells
Assay type: cell-based
Bridge positions count the residues as written; N and C are the ends. Square brackets hold non-standard residues; d marks the D form. Side chains are listed from the residue outwards. Peptide text beside a SMILES is read from it. I, II: the chains in the order shown. * marks the point of attachment. X12 = CCOc1ccc(C[C@@H](NC(=O)[C@H](N)Cc2ccccc2)C(=O)*)cc1; Piperidin1yl(4-NH2,4-COOH) = NC1(C(=O)O)CCN(*)CC1; X1 = NCCCC[C@@H](NC(=O)C1(N)CCN(*)CC1)C(N)=O; X4 = NCCCC[C@H](NC(=O)C1(N)CCN(*)CC1)C(=O)O; Trifluoroethyl = FC(F)(F)C*; Api = NC1(C(=O)O)CCNCC1; iPr = CC(C)*
Answers are plain numbers, in nM.

Examples from the recorded data:
compound | value
CCc1ccc(C[C@@H](NC(=O)[C@H](N)Cc2ccccc2)C(=O)N[C@H](CC(C)C)C(=O)N[C@H](CCCCN)C(=O)N2CCC(N)(C(=O)N[C@H](CCCCN)C(=O)O)CC2)cc1 | 0.133
CCOc1ccc(C[C@@H](NC(=O)[C@H](N)Cc2ccccc2)C(=O)N[C@H](CC(C)C)C(=O)N[C@H](CCCCN)C(=O)N2CCC(N)(C(=O)N[C@@H](CCCCN)C(=O)N[C@@H](CCCCN)C(=O)N[C@@H](CCCCN)C(=O)N[C@@H](CCCCN)C(=O)N[C@@H](CCCCN)C(N)=O)CC2)cc1 [Compound 11] (H-[Api]([dK-dL-X12])KKKKK-NH2; N-terminus assumed) | 0.0534
CCOc1ccc(C[C@@H](NC(=O)[C@H](N)Cc2ccccc2)C(=O)N[C@H](CC(C)C)C(=O)N[C@H](CCCCN)C(=O)N2CCC(N)(C(=O)NCC(=O)NCC(=O)NCC(=O)NCC(=O)N[C@@H](CCCCN)C(N)=O)CC2)cc1 [Compound 59] (H-[Api]([dK-dL-X12])GGGGK-NH2; N-terminus assumed) | 0.0694
CCOc1ccc(C[C@@H](NC(=O)[C@H](N)Cc2ccccc2)C(=O)N[C@H](CC(C)C)C(=O)N[C@H](CCCCN)C(=O)N2CCC(N)(C(=O)NCC(=O)NCC(=O)NCC(=O)N[C@@H](CCCCN)C(=O)O)CC2)cc1 [Compound 56] (H-[Api]([dK-dL-X12])GGGK-OH; N-terminus assumed) | 0.0506
COc1ccc(C[C@@H](NC(=O)[C@H](N)Cc2ccccc2)C(=O)N[C@H](CC(C)C)C(=O)N[C@H](CCCCN)C(=O)N2CCC(N)(C(=O)O)CC2)cc1 [Compound 86] (H-[dF][dY](Me)[dL][dK]-{Piperidin1yl(4-NH2,4-COOH)}; N-terminus assumed) | 0.121
CCOc1ccc(C[C@@H](NC(=O)[C@H](N)Cc2ccccc2)C(=O)N[C@H](CC(C)C)C(=O)N[C@H](CCCCN)C(=O)N2CCC(N)(C(=O)NCC(=O)NCC(=O)N[C@@H](CCCCN)C(N)=O)CC2)cc1 [Compound 51] (I: H-[Api]GGK-NH2 / II: H-[dF][dY](Et)[dL][dK]; amide I:1-II:C; N-terminus assumed) | 0.0477

Could you report EC50 for every entry in the following list?
1. CC(C)C[C@@H](NC(=O)[C@@H](Cc1ccc(OC(C)C)cc1)NC(=O)[C@H](N)Cc1ccccc1)C(=O)N[C@H](CCCCN)C(=O)N1CCC(N)(C(=O)N[C@H](CCCCN)C(N)=O)CC1 [Compound 101] (H-[dF][dY](iPr)[dL][dK]-X1; N-terminus assumed)
2. CC(C)C[C@@H](NC(=O)[C@@H](Cc1ccc(OCC(F)(F)F)cc1)NC(=O)[C@H](N)Cc1ccccc1)C(=O)N[C@H](CCCCN)C(=O)N1CCC(N)(C(=O)N[C@H](CCCCN)C(N)=O)CC1 [Compound 95] (H-[dF][dY](Trifluoroethyl)[dL][dK]-X1; N-terminus assumed)
3. CC(C)C[C@@H](NC(=O)[C@@H](Cc1ccc(I)cc1)NC(=O)[C@H](N)Cc1ccccc1)C(=O)N[C@H](CCCCN)C(=O)N1CCC(N)(C(=O)N[C@@H](CCCCN)C(=O)O)CC1
4. CCOc1ccc(C[C@@H](NC(=O)[C@H](N)Cc2ccccc2)C(=O)N[C@H](CC(C)C)C(=O)N[C@H](CCCCN)C(=O)N2CCC(N)(C(=O)N[C@@H](CCCCN)C(=O)O)CC2)cc1 [Compound 4] (H-[dF][dY](Et)[dL][dK]-X4; N-terminus assumed)
5. CC(C)C[C@@H](NC(=O)[C@@H](Cc1ccc(OC(C)C)cc1)NC(=O)[C@H](N)Cc1ccccc1)C(=O)N[C@H](CCCCN)C(=O)N1CCC(N)(C(=O)O)CC1 [Compound 98] (H-[dF][dY](iPr)[dL][dK]-{Piperidin1yl(4-NH2,4-COOH)}; N-terminus assumed)

1. 0.0728
2. 0.0505
3. 0.0558
4. 0.0399
5. 0.145

Could you report EC50 for every entry in the following list?
1. CC(C)C[C@@H](NC(=O)[C@@H](Cc1ccc(Cl)cc1)NC(=O)[C@H](N)Cc1ccccc1)C(=O)N[C@H](CCCCN)C(=O)N1CCC(N)(C(=O)O)CC1
2. CC(C)C[C@@H](NC(=O)[C@@H](Cc1ccc(OCC(F)(F)F)cc1)NC(=O)[C@H](N)Cc1ccccc1)C(=O)N[C@H](CCCCN)C(=O)N1CCC(N)(C(=O)O)CC1 [Compound 92] (H-[dF][dY](Trifluoroethyl)[dL][dK]-{Piperidin1yl(4-NH2,4-COOH)}; N-terminus assumed)
3. CCOc1ccc(C[C@@H](NC(=O)[C@H](N)Cc2ccccc2)C(=O)N[C@H](CC(C)C)C(=O)N[C@H](CCCCN)C(=O)N2CCC(N)(C(=O)NCC(=O)NCC(=O)NCC(=O)N[C@H](CCCCN)C(N)=O)CC2)cc1 [Compound 57] (H-[Api]([dK-dL-X12])GGG[dK]-NH2; N-terminus assumed)

[0.149, 0.109, 0.0514]
